- TARGET ENTITY: 5-hydroxytryptamine receptor 1A (Homo sapiens, UniProt P08908)
- Sequence (P08908 whole entry): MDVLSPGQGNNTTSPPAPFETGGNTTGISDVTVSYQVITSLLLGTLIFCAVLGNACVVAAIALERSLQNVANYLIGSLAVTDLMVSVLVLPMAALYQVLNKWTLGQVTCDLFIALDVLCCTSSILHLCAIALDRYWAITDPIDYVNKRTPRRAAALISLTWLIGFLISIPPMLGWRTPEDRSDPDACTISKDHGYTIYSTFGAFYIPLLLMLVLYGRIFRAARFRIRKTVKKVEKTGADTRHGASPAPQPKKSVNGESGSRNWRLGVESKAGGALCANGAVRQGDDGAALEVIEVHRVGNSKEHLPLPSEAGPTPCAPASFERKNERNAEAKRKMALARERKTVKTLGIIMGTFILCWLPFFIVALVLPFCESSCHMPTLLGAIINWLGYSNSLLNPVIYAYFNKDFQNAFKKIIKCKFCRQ

- MOLECULE: "O=C1CC2(CCCC2)CC(=O)N1CCN1CCN(c2cc(F)ccc2F)CC1"
  Ki: "61 nM"
- MOLECULE: "COc1ccccc1OCCN(C)CCN1C(=O)CC2(CCCC2)CC1=O"
  Ki: "259 nM"
- MOLECULE: "O=C1CC2(CCCC2)CC(=O)N1CCNCCOc1cc(Cl)ccc1Cl"
  Ki: "> 1000 nM"
- MOLECULE: "O=C1C=CC(=O)N1CCN1CCN(c2cc(Cl)ccc2Cl)CC1"
  Ki: "> 1000 nM"
- MOLECULE: "CN(CCN1C(=O)CC2(CCCC2)CC1=O)CC(=O)N(C)c1cc(Cl)ccc1Cl"
  Ki: "> 1000 nM"
- MOLECULE: "O=C1CC2(CCCC2)CC(=O)N1CCN1CCC(c2ccccc2Cl)CC1"
  Ki: "5.25 nM"
- MOLECULE: "CC1CN(c2ccccc2[N+](=O)[O-])CCN1CCN1C(=O)CC2(CCCC2)CC1=O (stereo unspecified)"
  Ki: "86.2 nM"
- MOLECULE: "CC1(C)CC(=O)N(CCN2CCN(c3ccccc3Cl)CC2)C(=O)C1"
  Ki: "65.8 nM"
- MOLECULE: "O=C1CC2(CCCC2)CC(=O)N1CCN1CCN(c2ccc(Cl)cc2Cl)CC1"
  Ki: "12.1 nM"
- MOLECULE: "Clc1ccccc1N1CCN(CCN2CCC3(CCCC3)CC2)CC1"
  Ki: "85.4 nM"
- MOLECULE: "O=C1CC2(CCCC2)CC(=O)N1CCN1CCN(c2ccccc2Cl)CC1"
  Ki: "4.24 nM"
- MOLECULE: "O=C1CC2(CCCC2)CC(=O)N1CCN1CCN(c2cc([N+](=O)[O-])ccc2Cl)CC1"
  Ki: "> 1000 nM"
- MOLECULE: "O=C1CC2(CCCC2)CC(=O)N1CCN1CCC(c2ccccc2)CC1"
  Ki: "25.9 nM"
- MOLECULE: "COc1ccccc1N1CCN(CCN2C(=O)CC3(CCN(C(C)=O)CC3)CC2=O)CC1"
  Ki: "> 10 nM"
- MOLECULE: "CC(C)Oc1ccccc1N1CCN(CCN2C(=O)CC3(CCCC3)CC2=O)CC1"
  Ki: "0.54 nM"
- MOLECULE: "O=C1CC2(CCCC2)CC(=O)N1CCN1CCN(c2cc([N+](=O)[O-])ccc2F)CC1"
  Ki: "> 1000 nM"
- MOLECULE: "COc1ccccc1N1CCN(CCN2C(=O)CC3(CCN(Cc4ccccc4)CC3)CC2=O)CC1"
  Ki: "> 1000 nM"
- MOLECULE: "CN(C(=O)CNCCN1C(=O)CC2(CCCC2)CC1=O)c1cc(Cl)ccc1Cl"
  Ki: "> 1000 nM"
- MOLECULE: "O=C1CC2(CCCC2)CC(=O)N1CCNCCOc1ccccc1Cl"
  Ki: "> 1000 nM"
- MOLECULE: "CN(CCCN(C)c1cc(Cl)ccc1Cl)CCN1C(=O)CC2(CCCC2)CC1=O"
  Ki: "> 1000 nM"
- MOLECULE: "CN(CCCOc1cc(Cl)ccc1Cl)CCN1C(=O)CC2(CCCC2)CC1=O"
  Ki: "452 nM"

###

- TARGET ENTITY: Alpha-1A adrenergic receptor (Homo sapiens) (UniProt P35348)
Rule: measured Ki below 200 nM gets Met; anything equal to or greater than 200 nM gets Not met.

- COMPOUND: "COc1ccccc1OCCN(C)CCN1C(=O)CC2(CCCC2)CC1=O"
  LABEL: "Not met"
- COMPOUND: "O=C1CC2(C=CN1CCN1CCN(c3ccccc3Cl)CC1)CCCC2"
  LABEL: "Met"
- COMPOUND: "COc1ccccc1N1CCN(CCN2C(=O)CC3(CCNCC3)CC2=O)CC1"
  LABEL: "Not met"
- COMPOUND: "Clc1ccccc1N1CCN(CCN2CCC3(CCCC3)CC2)CC1"
  LABEL: "Not met"
- COMPOUND: "O=C1CC2(CCCC2)CC(=O)N1CCN1CCN(c2cc([N+](=O)[O-])ccc2Cl)CC1"
  LABEL: "Met"
- COMPOUND: "O=C1CC2(CCCC2)CCN1CCN1CCN(c2ccccc2Cl)CC1"
  LABEL: "Met"
- COMPOUND: "N#Cc1ccccc1N1CCN(CCN2C(=O)CC3(CCCC3)CC2=O)CC1"
  LABEL: "Not met"
- COMPOUND: "COc1cccc(N2CCN(CCN3C(=O)CC4(CCCC4)CC3=O)CC2)c1"
  LABEL: "Not met"
- COMPOUND: "CN(CCOc1cc(Cl)ccc1Cl)CCN1C(=O)CC2(CCCC2)CC1=O"
  LABEL: "Not met"
- COMPOUND: "O=C1CC2(CCCC2)CC(=O)N1CCN1CCN(c2ccccc2F)CC1"
  LABEL: "Not met"
- COMPOUND: "O=C1CC2(CCCC2)C(=O)N1CCN1CCN(c2cc(Cl)ccc2Cl)CC1"
  LABEL: "Met"
- COMPOUND: "O=C1CC2(CCCC2)CC(=O)N1CCN1CCC(c2ccccc2Cl)CC1"
  LABEL: "Met"
- COMPOUND: "O=C1CC2(CCCC2)CC(=O)N1CCN1CCC(c2ccccc2)CC1"
  LABEL: "Not met"
- COMPOUND: "O=C1CC2(CCCC2)CC(=O)N1CCN1CCN(c2cc(F)ccc2Cl)CC1"
  LABEL: "Met"
- COMPOUND: "O=C1CC2(CCCC2)CC(=O)N1CCN1CCN(c2ccccc2Br)CC1"
  LABEL: "Not met"
- COMPOUND: "COc1ccccc1N1CCN(CCN2C=CC3(CCCC3)CC2=O)CC1"
  LABEL: "Met"
- COMPOUND: "O=C1CC2(CCCC2)CC(=O)N1CCN1CCN(c2ccccc2C2CC2)CC1"
  LABEL: "Met"
- COMPOUND: "O=C1CC2(CCCC2)CC(=O)N1CCCCN1CCN(c2cc(Cl)ccc2Cl)CC1"
  LABEL: "Met"
- COMPOUND: "CC(CN1CCN(c2cc(Cl)ccc2Cl)CC1)N1C(=O)CC2(CCCC2)CC1=O (centres undefined)"
  LABEL: "Met"
- COMPOUND: "O=C1CC2(CCCC2)CC(=O)N1CCCN1CCN(c2cc(Cl)ccc2Cl)CC1"
  LABEL: "Met"
- COMPOUND: "O=C1CC2(CCCC2)CC(=O)N1CCN1CCN(c2cc(I)ccc2Cl)CC1"
  LABEL: "Not met"
- COMPOUND: "COc1ccccc1N1CCN(CCN2C(=O)CC3(CCN(C(C)=O)CC3)CC2=O)CC1"
  LABEL: "Not met"
- COMPOUND: "CN(CCN1C(=O)CC2(CCCC2)CC1=O)CCN(C)c1cc(Cl)ccc1Cl"
  LABEL: "Not met"
- COMPOUND: "COc1ccccc1N1CCN(CCN2C(=O)CC3(CCN(Cc4ccccc4)CC3)CC2=O)CC1"
  LABEL: "Not met"

###

- TARGET ENTITY: 5-hydroxytryptamine receptor 1A (Homo sapiens, UniProt P08908)
- Sequence (P08908 whole entry): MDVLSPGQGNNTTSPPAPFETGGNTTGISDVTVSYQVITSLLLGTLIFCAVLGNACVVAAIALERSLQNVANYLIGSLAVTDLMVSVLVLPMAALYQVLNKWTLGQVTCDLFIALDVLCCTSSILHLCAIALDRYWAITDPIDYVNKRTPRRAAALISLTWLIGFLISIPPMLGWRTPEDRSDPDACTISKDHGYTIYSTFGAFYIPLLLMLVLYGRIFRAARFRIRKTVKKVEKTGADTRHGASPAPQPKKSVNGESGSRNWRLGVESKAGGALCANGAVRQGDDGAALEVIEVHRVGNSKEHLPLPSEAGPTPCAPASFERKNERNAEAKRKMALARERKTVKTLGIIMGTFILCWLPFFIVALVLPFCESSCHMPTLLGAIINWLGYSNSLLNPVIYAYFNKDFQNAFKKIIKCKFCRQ
pKi: −log10 of the molar value.

- COMPOUND: "O=C1CC2(CCCC2)CC(=O)N1CCN1CCCN(c2ccccc2Cl)CC1"
  QUALIFIER OPERATOR: "="
  pKi: 9.47
- COMPOUND: "O=C1CC2(CCCC2)CC(=O)N1CCN1CCN(c2ccccc2)CC1"
  QUALIFIER OPERATOR: "="
  pKi: 7.45
- COMPOUND: "O=C1CC2(CCCC2)CC(=O)N1CCN1CCN(c2ccccc2C(F)(F)F)CC1"
  QUALIFIER OPERATOR: "="
  pKi: 7.58
- COMPOUND: "CN(CCOc1cc(Cl)ccc1Cl)CCN1C(=O)CC2(CCCC2)CC1=O"
  QUALIFIER OPERATOR: "<"
  pKi: 6.00
- COMPOUND: "O=C1CC2(CCCC2)CC(=O)N1CCN1CCN(c2cccc(C(F)(F)F)c2)CC1"
  QUALIFIER OPERATOR: "="
  pKi: 8.09
- COMPOUND: "Cc1ccc(Cl)cc1N1CCN(CCN2C(=O)CC3(CCCC3)CC2=O)CC1"
  QUALIFIER OPERATOR: "="
  pKi: 6.87
- COMPOUND: "CC(C)c1ccc(N2CCN(CCN3C(=O)CC4(CCCC4)CC3=O)CC2)cc1"
  QUALIFIER OPERATOR: "<"
  pKi: 6.00
- COMPOUND: "O=C1CC2(CCCC2)CC(=O)N1CCN1CCN(c2cc(C(F)(F)F)ccc2Cl)CC1"
  QUALIFIER OPERATOR: "<"
  pKi: 6.00
- COMPOUND: "Cc1ccc(N2CCN(CCN3C(=O)CC4(CCCC4)CC3=O)CC2)c(C)c1"
  QUALIFIER OPERATOR: "="
  pKi: 5.63
- COMPOUND: "O=C1CC2(CCCC2)CC(=O)N1CCN1CCN(c2ccc(Cl)c(Cl)c2)CC1"
  QUALIFIER OPERATOR: "="
  pKi: 7.70
- COMPOUND: "O=C1CC2(CCCC2)CC(=O)N1CCN1CCN(c2ccccc2C2CC2)CC1"
  QUALIFIER OPERATOR: "="
  pKi: 8.92
- COMPOUND: "O=C1CC2(CCCC2)CC(=O)N1CCCN1CCN(c2cc(Cl)ccc2Cl)CC1"
  QUALIFIER OPERATOR: "="
  pKi: 6.40
- COMPOUND: "COc1ccccc1OCCNCCN1C(=O)CC2(CCCC2)CC1=O"
  QUALIFIER OPERATOR: "="
  pKi: 6.28
- COMPOUND: "COc1ccccc1N1CCN(CCN2C(=O)CC3(CCCC3)CC2=O)CC1 [BMY-7378]"
  QUALIFIER OPERATOR: "="
  pKi: 9.10
- COMPOUND: "COc1ccccc1N1CCN(CCN2C(=O)CC3(CCNCC3)CC2=O)CC1"
  QUALIFIER OPERATOR: "<"
  pKi: 6.00
- COMPOUND: "CN(CCN1C(=O)CC2(CCCC2)CC1=O)CC(=O)Nc1cc(Cl)ccc1Cl"
  QUALIFIER OPERATOR: "<"
  pKi: 5.00
